TESTED ON: CYP2D6 (Homo sapiens (Human), UniProt P10635)
Sequence (P10635 whole entry): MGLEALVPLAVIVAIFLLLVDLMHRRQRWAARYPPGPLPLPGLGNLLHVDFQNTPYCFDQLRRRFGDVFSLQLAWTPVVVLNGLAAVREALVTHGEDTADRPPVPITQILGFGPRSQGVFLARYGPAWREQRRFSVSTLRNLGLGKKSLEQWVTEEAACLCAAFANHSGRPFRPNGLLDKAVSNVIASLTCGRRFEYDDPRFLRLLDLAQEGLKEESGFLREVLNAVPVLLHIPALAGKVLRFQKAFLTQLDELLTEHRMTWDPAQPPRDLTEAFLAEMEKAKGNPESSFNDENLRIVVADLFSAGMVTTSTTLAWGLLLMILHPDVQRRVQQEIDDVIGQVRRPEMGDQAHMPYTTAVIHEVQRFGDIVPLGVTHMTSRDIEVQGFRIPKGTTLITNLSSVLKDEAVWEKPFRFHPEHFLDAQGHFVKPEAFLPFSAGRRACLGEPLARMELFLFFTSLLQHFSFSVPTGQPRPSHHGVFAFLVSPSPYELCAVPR
PROTOCOL NOTES: CYP enzyme inhibition, fluorescent substrate (AMMC)
Type: in vitro ADME
STUDY CONDITIONS: human, CYP2D6 enzyme (BD Biosciences), probe AMMC, read-out: Cyp IC50 2D6

| MOL SMILES | IC50 at 30 min |
| --- | --- |
| CCCS(=O)(=O)Nc1ccc(F)c(C(=O)c2c[nH]c3nccc(NC4CCCC4)c23)c1F | > 10 µM |

* * *

TESTED ON: CYP3A4(BQ) (Homo sapiens (Human), UniProt P08684)
Sequence (P08684 whole entry): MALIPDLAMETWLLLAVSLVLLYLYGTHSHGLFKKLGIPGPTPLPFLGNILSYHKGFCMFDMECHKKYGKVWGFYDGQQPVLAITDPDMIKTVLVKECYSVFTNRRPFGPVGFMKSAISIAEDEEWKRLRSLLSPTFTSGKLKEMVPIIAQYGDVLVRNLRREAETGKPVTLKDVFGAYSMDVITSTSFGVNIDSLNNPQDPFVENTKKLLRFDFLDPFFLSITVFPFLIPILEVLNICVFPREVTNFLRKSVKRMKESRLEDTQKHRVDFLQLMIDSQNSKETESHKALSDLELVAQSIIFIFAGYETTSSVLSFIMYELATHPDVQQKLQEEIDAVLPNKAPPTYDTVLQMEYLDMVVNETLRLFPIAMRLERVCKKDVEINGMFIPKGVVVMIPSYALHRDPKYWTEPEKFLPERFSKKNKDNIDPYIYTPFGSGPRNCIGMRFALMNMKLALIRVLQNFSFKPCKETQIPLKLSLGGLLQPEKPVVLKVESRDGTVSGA
PROTOCOL NOTES: CYP enzyme inhibition, fluorescent substrate BQ
STUDY CONDITIONS: read-out: Cyp IC50 3A4(BQ); CYP3A4, substrate BQ
pIC50: −log10 of the molar value.
Reported pIC50 values follow for various molecules

| MOL SMILES | pIC50 |
| --- | --- |
| COc1ncnc2[nH]cc(C(=O)c3c(F)ccc(NS(=O)(=O)c4ccc(C(C)C)cc4)c3F)c12 | < 5.00 |
| O=C(c1c(F)ccc(NS(=O)(=O)c2ccc(C(F)(F)F)cc2)c1F)c1c[nH]c2ncnc(NC3CC3)c12 | < 5.00 |
| COc1cccc(Nc2ncnc3[nH]cc(C(=O)c4c(F)ccc(NS(=O)(=O)c5cc(F)ccc5F)c4F)c23)c1 | < 5.00 |
| O=C(c1c(F)ccc(NS(=O)(=O)c2ccc(C(F)(F)F)cc2)c1F)c1c[nH]c2ncnc(O)c12 | < 5.00 |
| CCCc1ccc(S(=O)(=O)Nc2ccc(F)c(C(=O)c3c[nH]c4ncnc(NC5COC5)c34)c2F)cc1 | < 5.00 |
| Cc1cc(C)cc(S(=O)(=O)Nc2ccc(F)c(C(=O)c3c[nH]c4ncnc(NC(C)C)c34)c2F)c1 | < 5.00 |
| Cc1nn(C)cc1Nc1ncnc2[nH]cc(C(=O)c3c(F)ccc(NS(=O)(=O)c4ccccc4F)c3F)c12 | < 5.00 |

* * *

TESTED ON: B-Raf V600E (Homo sapiens (Human), UniProt P15056, V600E)
Sequence (P15056 whole entry V600E): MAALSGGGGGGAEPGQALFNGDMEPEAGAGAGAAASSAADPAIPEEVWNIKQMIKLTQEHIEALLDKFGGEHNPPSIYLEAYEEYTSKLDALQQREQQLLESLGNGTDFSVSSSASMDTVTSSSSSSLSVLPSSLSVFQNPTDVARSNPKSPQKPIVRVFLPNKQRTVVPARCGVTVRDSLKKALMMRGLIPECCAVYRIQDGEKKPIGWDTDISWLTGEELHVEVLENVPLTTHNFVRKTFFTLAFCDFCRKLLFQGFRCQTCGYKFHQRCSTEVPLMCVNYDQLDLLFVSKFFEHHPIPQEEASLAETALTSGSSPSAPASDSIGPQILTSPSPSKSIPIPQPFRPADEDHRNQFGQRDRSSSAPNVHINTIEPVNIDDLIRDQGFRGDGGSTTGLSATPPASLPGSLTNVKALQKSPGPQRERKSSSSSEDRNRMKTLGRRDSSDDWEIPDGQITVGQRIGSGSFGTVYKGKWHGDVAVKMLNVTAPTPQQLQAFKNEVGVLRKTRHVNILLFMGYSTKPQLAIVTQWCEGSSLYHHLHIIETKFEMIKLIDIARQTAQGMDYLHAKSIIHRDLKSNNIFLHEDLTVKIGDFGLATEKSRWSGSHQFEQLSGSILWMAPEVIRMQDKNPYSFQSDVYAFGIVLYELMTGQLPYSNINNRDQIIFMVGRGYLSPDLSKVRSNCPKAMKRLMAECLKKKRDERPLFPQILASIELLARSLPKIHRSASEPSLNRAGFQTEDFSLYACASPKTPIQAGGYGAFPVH
PROTOCOL NOTES: B-Raf V600E kinase activity biochemical assay (AlphaScreen, biotin-MEK1 phosphorylation)
STUDY CONDITIONS: ratio of IC50 B-Raf V600E / c-Raf-1
Reported Biochemical activity ratio V600E/C values follow for various compounds
ASSAY METRIC: Biochemical activity ratio V600E/C

| MOL SMILES | ASSAY METRIC | RESULT |
| --- | --- | --- |
| Cc1c(Cl)cnc2[nH]cc(C(=O)c3c(F)ccc(NS(=O)(=O)c4ccc(C(F)(F)F)cc4)c3F)c12 | Biochemical activity ratio V600E/C | >10 |
| COc1ncnc2[nH]cc(C(=O)c3c(F)ccc(NS(=O)(=O)c4ccc(C(C)C)cc4)c3F)c12 | Biochemical activity ratio V600E/C | >10 |
| O=C(c1c(F)ccc(NS(=O)(=O)c2ccc(C(F)(F)F)cc2)c1F)c1c[nH]c2ncnc(N3CCCC3)c12 | Biochemical activity ratio V600E/C | >10 |
| O=C(c1c(F)ccc(NS(=O)(=O)c2ccc(C(F)(F)F)cc2)c1F)c1c[nH]c2nccc(C(F)(F)F)c12 | Biochemical activity ratio V600E/C | >10 |
| CCCS(=O)(=O)Nc1ccc(F)c(C(=O)c2c[nH]c3ncnc(OCC)c23)c1F | Biochemical activity ratio V600E/C | 0.1-10 |
| CCCS(=O)(=O)Nc1ccc(F)c(C(=O)c2c[nH]c3ncc(C)c(Cl)c23)c1F | Biochemical activity ratio V600E/C | 0.1-10 |
| CCCc1ccc(S(=O)(=O)Nc2ccc(F)c(C(=O)c3c[nH]c4ncnc(OCC)c34)c2F)cc1 | Biochemical activity ratio V600E/C | >10 |
| O=C(c1c(F)ccc(NS(=O)(=O)c2ccc(C(F)(F)F)cc2)c1F)c1c[nH]c2ncnc(NCC3CC3)c12 | Biochemical activity ratio V600E/C | >10 |

* * *

TESTED ON: B-Raf V600E (Homo sapiens (Human), UniProt P15056, V600E)
PROTOCOL NOTES: B-Raf V600E kinase activity biochemical assay (AlphaScreen, biotin-MEK1 phosphorylation)
STUDY CONDITIONS: B-Raf V600E

| MOL SMILES | IC50 |
| --- | --- |
| O=C(c1c(F)ccc(NS(=O)(=O)c2ccc(C(F)(F)F)cc2)c1F)c1c[nH]c2ncnc(OCC3CC3)c12 | > 0.1 µM |
| Cc1c(Cl)cnc2[nH]cc(C(=O)c3c(F)ccc(NS(=O)(=O)c4ccc(C(F)(F)F)cc4)c3F)c12 | > 0.1 µM |
| Cc1ncnc2[nH]cc(C(=O)c3c(F)ccc(NS(=O)(=O)CC(C)C)c3F)c12 | < 0.1 µM |
| CCCS(=O)(=O)Nc1ccc(F)c(C(=O)c2c[nH]c3ncnc(Cl)c23)c1F | < 0.1 µM |
| Cc1ncnc2[nH]cc(C(=O)c3c(F)ccc(NS(=O)(=O)c4ccc(C(C)C)cc4)c3F)c12 | > 0.1 µM |
| Nc1ncnc2[nH]cc(C(=O)c3c(F)ccc(NS(=O)(=O)c4ccc(C(F)(F)F)cc4)c3F)c12 | > 0.1 µM |
| CCCc1ccc(S(=O)(=O)Nc2ccc(F)c(C(=O)c3c[nH]c4ncnc(O)c34)c2F)cc1 | > 0.1 µM |
| COc1ncnc2[nH]cc(C(=O)c3c(F)ccc(NS(=O)(=O)CC(C)C)c3F)c12 | < 0.1 µM |
| CC(C)CNc1ncnc2[nH]cc(C(=O)c3c(F)ccc(NS(=O)(=O)c4ccc(C(F)(F)F)cc4)c3F)c12 | > 0.1 µM |
| COc1ccc(S(=O)(=O)Nc2ccc(F)c(C(=O)c3c[nH]c4ncnc(OC)c34)c2F)cn1 | > 0.1 µM |
| CC(C)Nc1ncnc2[nH]cc(C(=O)c3c(F)ccc(NS(=O)(=O)c4ccc(C(C)C)cc4)c3F)c12 | > 0.1 µM |
| CCCc1ccc(S(=O)(=O)Nc2ccc(F)c(C(=O)c3c[nH]c4ncnc(NC5CCOCC5)c34)c2F)cc1 | > 0.1 µM |
| COCCNc1ncnc2[nH]cc(C(=O)c3c(F)ccc(NS(=O)(=O)c4ccc(C(F)(F)F)cc4)c3F)c12 | > 0.1 µM |
| Cc1cc(C)cc(S(=O)(=O)Nc2ccc(F)c(C(=O)c3c[nH]c4ncnc(C)c34)c2F)c1 | > 0.1 µM |
| CCCS(=O)(=O)Nc1ccc(F)c(C(=O)c2c[nH]c3ncc(C#N)c(Cl)c23)c1F | < 0.1 µM |
| CCCS(=O)(=O)Nc1ccc(F)c(C(=O)c2c[nH]c3ncnc(Nc4ccccc4)c23)c1F | < 0.1 µM |

* * *

Tested on: B-Raf
PROTOCOL NOTES: B-Raf kinase activity biochemical assay (AlphaScreen, biotin-MEK1 phosphorylation)
STUDY CONDITIONS: ratio of IC50 B-Raf / c-Raf-1
ASSAY METRIC: Biochemical activity ratio B/C

| MOL SMILES | ASSAY METRIC | RESULT |
| --- | --- | --- |
| CCCS(=O)(=O)Nc1ccc(F)c(C(=O)c2c[nH]c3ncnc(OCC)c23)c1F | Biochemical activity ratio B/C | >10 |
| Cc1cc(C)cc(S(=O)(=O)Nc2ccc(F)c(C(=O)c3c[nH]c4ncnc(C)c34)c2F)c1 | Biochemical activity ratio B/C | >10 |
| CCCS(=O)(=O)Nc1ccc(F)c(C(=O)c2c[nH]c3ncc(C)c(Cl)c23)c1F | Biochemical activity ratio B/C | 0.1-10 |
| CCCS(=O)(=O)Nc1ccc(F)c(C(=O)c2c[nH]c3ncc(C#N)c(Cl)c23)c1F | Biochemical activity ratio B/C | >10 |
| CN1CCC(Nc2ncnc3[nH]cc(C(=O)c4c(F)ccc(NS(=O)(=O)c5ccc(C(F)(F)F)cc5)c4F)c23)CC1 | Biochemical activity ratio B/C | 0.1-10 |
| CCCS(=O)(=O)Nc1ccc(F)c(C(=O)c2c[nH]c3ncc(Cl)c(OC)c23)c1F | Biochemical activity ratio B/C | >10 |
| O=C(c1c(F)ccc(NS(=O)(=O)c2ccc(C(F)(F)F)cc2)c1F)c1c[nH]c2ncnc(NC3COC3)c12 | Biochemical activity ratio B/C | >10 |
| CC(C)Cc1ncnc2[nH]cc(C(=O)c3c(F)ccc(NS(=O)(=O)c4ccc(C(F)(F)F)cc4)c3F)c12 | Biochemical activity ratio B/C | >10 |
| CCCS(=O)(=O)Nc1ccc(F)c(C(=O)c2c[nH]c3nccc(NC4CCCC4)c23)c1F | Biochemical activity ratio B/C | >10 |
| CN(C)c1ncnc2[nH]cc(C(=O)c3c(F)ccc(NS(=O)(=O)c4ccc(C(F)(F)F)cc4)c3F)c12 | Biochemical activity ratio B/C | >10 |
| COc1ccc(S(=O)(=O)Nc2ccc(F)c(C(=O)c3c[nH]c4ncnc(C)c34)c2F)cc1F | Biochemical activity ratio B/C | >10 |
| N#Cc1ncnc2[nH]cc(C(=O)c3c(F)ccc(NS(=O)(=O)c4ccc(C(F)(F)F)cc4)c3F)c12 | Biochemical activity ratio B/C | 0.1-10 |
| CCCS(=O)(=O)Nc1ccc(F)c(C(=O)c2c[nH]c3ncnc(Cl)c23)c1F | Biochemical activity ratio B/C | >10 |
| CCCS(=O)(=O)Nc1ccc(F)c(C(=O)c2c[nH]c3ncnc(NC4CCOCC4)c23)c1F | Biochemical activity ratio B/C | >10 |
| COCCNc1ncnc2[nH]cc(C(=O)c3c(F)ccc(NS(=O)(=O)c4ccc(C(F)(F)F)cc4)c3F)c12 | Biochemical activity ratio B/C | 0.1-10 |
| CCCc1ccc(S(=O)(=O)Nc2ccc(F)c(C(=O)c3c[nH]c4ncnc(NC5CC5)c34)c2F)cc1 | Biochemical activity ratio B/C | 0.1-10 |
| CCNc1ncnc2[nH]cc(C(=O)c3c(F)ccc(NS(=O)(=O)c4ccc(C(F)(F)F)cc4)c3F)c12 | Biochemical activity ratio B/C | >10 |
| O=C(c1c(F)ccc(NS(=O)(=O)c2ccc(C(F)(F)F)cc2)c1F)c1c[nH]c2ncnc(NCC3CC3)c12 | Biochemical activity ratio B/C | >10 |
| CCc1ccc(S(=O)(=O)Nc2ccc(F)c(C(=O)c3c[nH]c4ncnc(C)c34)c2F)cc1 | Biochemical activity ratio B/C | 0.1-10 |
| CCCc1ccc(S(=O)(=O)Nc2ccc(F)c(C(=O)c3c[nH]c4ncnc(Cl)c34)c2F)cc1 | Biochemical activity ratio B/C | 0.1-10 |
| CCc1ccc(S(=O)(=O)Nc2ccc(F)c(C(=O)c3c[nH]c4ncnc(NC(C)C)c34)c2F)cc1 | Biochemical activity ratio B/C | 0.1-10 |
| CN(C)CCNc1ncnc2[nH]cc(C(=O)c3c(F)ccc(NS(=O)(=O)c4ccc(C(F)(F)F)cc4)c3F)c12 | Biochemical activity ratio B/C | 0.1-10 |
| O=C(c1c(F)ccc(NS(=O)(=O)c2ccc(C(F)(F)F)cc2)c1F)c1c[nH]c2ncnc(NCCO)c12 | Biochemical activity ratio B/C | >10 |
| CNc1ncnc2[nH]cc(C(=O)c3c(F)ccc(NS(=O)(=O)c4ccc(C(F)(F)F)cc4)c3F)c12 | Biochemical activity ratio B/C | >10 |
| CC(C)CNc1ncnc2[nH]cc(C(=O)c3c(F)ccc(NS(=O)(=O)c4ccc(C(F)(F)F)cc4)c3F)c12 | Biochemical activity ratio B/C | >10 |
| N#Cc1c(F)cnc2[nH]cc(C(=O)c3c(F)ccc(NS(=O)(=O)c4ccc(C(F)(F)F)cc4)c3F)c12 | Biochemical activity ratio B/C | >10 |
| O=C(c1c(F)ccc(NS(=O)(=O)c2ccc(C(F)(F)F)cc2)c1F)c1c[nH]c2ncnc(NC3CCOCC3)c12 | Biochemical activity ratio B/C | >10 |
| COc1ncnc2[nH]cc(C(=O)c3c(F)ccc(NS(=O)(=O)c4ccc(C(C)C)cc4)c3F)c12 | Biochemical activity ratio B/C | 0.1-10 |
| CC(C)c1ncnc2[nH]cc(C(=O)c3c(F)ccc(NS(=O)(=O)c4ccc(C(F)(F)F)cc4)c3F)c12 | Biochemical activity ratio B/C | >10 |
| Cn1cc(Nc2ncnc3[nH]cc(C(=O)c4c(F)ccc(NS(=O)(=O)c5ccc(C(F)(F)F)cc5)c4F)c23)cn1 | Biochemical activity ratio B/C | >10 |
| Nc1ncnc2[nH]cc(C(=O)c3c(F)ccc(NS(=O)(=O)c4ccc(C(F)(F)F)cc4)c3F)c12 | Biochemical activity ratio B/C | >10 |
